Kindly supply the reported nuclei count values for the records listed here.
test: inhibitors of mutant huntingtin aggregation, primary screen, imaging, exon1htt(103Q)mCFP cells, high-content imaging (AID 483); details: exon1htt(103Q)mCFP cell line, aggregate imaging, at 2 µM; measured here: cell count, toxicity;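 further: compound exposure lasted 3 days before fixation; percent of the per-plate median nuclei count of sample wells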
Give bare numbers, in %.

Observe how each entry below is paired with its result.
Compound	nuclei count [%]
CCn1c(=O)c(C(=O)NCCc2ccccc2)c(O)c2ccccc21	96.4
CCOc1cccc(/C(O)=C2/C(=O)C(=O)N(CCN3CCOCC3)C2c2cccnc2)c1 (stereo not given)	104
CN1CCN(CC#CCC(O)(c2ccccc2)C2CCCC2)CC1 (stereo not given)	99.7
O=c1c2ccccc2c(/C=N/n2cnnc2)c(O)n1-c1ccccc1	58.6

Parameter requested: nuclei count. Apply to each item below.
1. CCN1C(=O)c2ccccc2S(=O)c2ccc(C(=O)NC3CC3)cc21 (stereo not given)
2. COc1ccc(N2C(=O)CC(N3CCCC4CCCCC43)C2=O)cc1 (stereo not given)
3. COc1ccc(C(O)C(CN2CCOCC2)c2ccccc2)cc1F (stereo not given)

1: 74.1; 2: 107; 3: 102

---

target: Alpha-2C adrenergic receptor (Homo sapiens) (UniProt P18825); assay: modulators of alpha2C/GIRK thallium flux, primary screen, cell-based, HEK293 alpha2C/GIRK1/2 (AID 624); settings: thallium flux BTC fluorescence, at 10 µM, actives lie on both sides;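 further: slope of fluorescence ratio to pre-addition baseline per second over 15 to 24 s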
Sequence (P18825 whole entry, looked up): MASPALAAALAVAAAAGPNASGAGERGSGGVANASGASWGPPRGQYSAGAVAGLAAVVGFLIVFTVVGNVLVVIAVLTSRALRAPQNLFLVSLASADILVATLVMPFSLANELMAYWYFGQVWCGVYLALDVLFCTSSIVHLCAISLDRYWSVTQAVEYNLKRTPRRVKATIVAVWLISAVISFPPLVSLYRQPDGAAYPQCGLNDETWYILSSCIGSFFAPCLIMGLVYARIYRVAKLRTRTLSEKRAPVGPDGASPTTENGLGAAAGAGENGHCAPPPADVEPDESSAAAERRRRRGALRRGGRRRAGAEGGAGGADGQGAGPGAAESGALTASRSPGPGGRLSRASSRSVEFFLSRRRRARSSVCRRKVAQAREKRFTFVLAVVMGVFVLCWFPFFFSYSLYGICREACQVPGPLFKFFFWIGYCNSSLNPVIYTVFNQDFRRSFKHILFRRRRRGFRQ
Provide the reported slope of each item.
Give bare numbers.

Please report slope for every entry that follows.
1. CCOC(=O)c1sc(NC(=O)c2noc3c2CCCC3)c(C(=O)OCC)c1C
2. CC(C)Cn1c(=O)c(C2=NS(=O)(=O)c3ccccc3N2)c(O)c2ccccc21
3. CCOc1cc(S(=O)(=O)Nc2ccccn2)ccc1F
4. O=C(CSc1n[nH]c(-c2ccco2)n1)Nc1sc2c(c1C(=O)Nc1ccccc1)CCCC2
5. CC1(C)CC(=O)c2cnc(NC(=O)Cc3ccc(Cl)cc3)nc2C1

[0.0086, 0.00697, 0.0046, 0.00332, 0.00659]

---

assay: inhibitors of E-selectin induction by TNFa, primary screen, imaging, HUVEC, immunofluorescence, MLSMR starter and 10KST1 sets (AID 487); conditions: HUVEC TNFalpha-induced E-selectin immunofluorescence imaging, at 2 µM; stronger effect = higher value;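 further: signal is fraction of cell area covered by stained E-selectin grains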
Measured quantity: inhibition (%)
One number for each entry, in %.

Molecule	Measured quantity	Units	Data value
CCOC(=O)c1[nH]c2ccc(C)cc2c1N	inhibition	%	-53.9
COc1ccc(Cn2c(-c3ccco3)nc3oc4ccccc4c(=O)c3c2=O)cc1	inhibition	%	-22
CCC(=O)Nc1ccc2nc(SCC(=O)N3CCCC3)sc2c1	inhibition	%	-56.1
O=C(C1CCC(N2C(=O)C3CC=CCC3C2=O)CC1)N1CCCCC1 (centres undefined)	inhibition	%	23.7

For every item below, please supply its inhibition.
1. O=C(CCN1C(=O)COc2ccccc21)NCCN1CCN(c2cccc(Cl)c2)CC1
2. COc1cccc(-c2cc(C(F)(F)F)n3ncc(C(=O)O)c3n2)c1
3. CCOC(=O)/C=c1\s/c(=C(\C#N)C(=O)OCC)n(-c2ccccc2)c1=O
4. COCCCNc1nc2c(c(=O)[nH]c(=O)n2C)n1CC(O)COc1ccccc1 (centres undefined)
5. COC(=O)CCCCCc1ccc(C(C)=O)s1

1: -68.5; 2: -22.3; 3: -12; 4: -63.3; 5: -65.9
